- Test system: CHO-MG* cells
- Protocol notes: PTS targeting: cytotoxicity IC50 in PTS-deficient cells
- Type: cell-based
- Condition summary: without aminoguanidine (AG); read-out: CHO-MG* IC50 w/o AG
Attribute measured: IC50

CNCCCCNCCCCNCc1ccc(CNCCCCNCCCCNC)c2ccccc12	> 100 µM

Challenge: If you can, please state the reported IC50 value of NCCCCNCCCCNCc1ccc(CNCCCCNCCCCN)c2ccccc12 .
Response given: 52.1 µM

----------
In this section we review reported IC50 values for a set of compounds.
- System: CHO cells
- Protocol notes: PTS targeting: cytotoxicity IC50 in PTS-active cells
- Format: cell-based
- Condition summary: without aminoguanidine (AG); read-out: CHO IC50 w/o AG
Answer format: numeric, nM implied, no suffix.

CNCCCCNCCCCNCc1ccc(CNCCCCNCCCCNC)c2ccccc12	39

Please examine the following record next.
Challenge: Looking for the measured IC50 of NCCCCNCCCCNCc1ccc(CNCCCCNCCCCN)c2ccccc12 , can you help?
Response given: 5500

----------
- Test system: CHO-MG* cells
- Protocol notes: PTS targeting: cytotoxicity IC50 in PTS-deficient cells
- Assay type: cell-based
- Condition summary: with aminoguanidine (AG); read-out: CHO-MG* IC50 w/ AG
Attribute measured: IC50

CNCCCCNCCCCNCc1ccc(CNCCCCNCCCCNC)c2ccccc12 [Compound A]	> 100 µM

Challenge: Which measured IC50 value corresponds to NCCCCNCCCCNCc1ccc(CNCCCCNCCCCN)c2ccccc12 [Compound A w/o Me] ?
Response given: > 100 µM

FYI, the data here is from patent US20160299149A1.
